Items are presented alongside their recorded log10(koff).
Biological target: T1, recombinant human SOST (rhSOST) (human, UniProt Q9BQB4 24-213)
T1 construct: Treated as one molecule; also called recombinant human SOST protein; human sclerostin
T1 sequence: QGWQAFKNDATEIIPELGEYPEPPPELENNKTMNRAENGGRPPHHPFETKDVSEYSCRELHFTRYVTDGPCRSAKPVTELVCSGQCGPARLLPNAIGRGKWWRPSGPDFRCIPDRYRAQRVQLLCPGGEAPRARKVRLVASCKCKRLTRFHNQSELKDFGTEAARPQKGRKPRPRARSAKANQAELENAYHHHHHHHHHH
Test: SPR Biacore T200, IgG captured via anti-human Fc, rhSOST analyte, 37 C
log10 koff, s⁻¹

Example cases with answers are listed next.
Kindly note the recorded log10(koff) for DM8 (antibody, V domains shown, also called mH11/mL17) VH: EVQLLESGGGLVQPGGSLRLSCAASGFTFSDYWMQWVRQAPGKGLEWVGAIYPGDGDTRYNQKFKDRFTISRDNSKNTLYLQMNSLRAEDTAVYYCARSMDYWGQGTLVTVSS VL: DIVMTQSPDSLAVSLGERATINCRASKTVDSYGNSFMHWYQQKPGQPPKLLIYHSSNLESGVPDRFSGSGSGTDFTLTISSLQAEDVAVYYCLQTIEFPYTFGQGTKLEIK , which is -2.15

Kindly note the recorded log10(koff) for DM34 (antibody, V domains shown, also called mH11/mL19) VH: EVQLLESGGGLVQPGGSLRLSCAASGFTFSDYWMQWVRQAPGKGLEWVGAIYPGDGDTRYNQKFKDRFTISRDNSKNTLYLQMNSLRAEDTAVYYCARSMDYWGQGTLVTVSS VL: DIVMTQSPDSLAVSLGERATINCRASKTVDSYGNSFMHWYQQKPGQPPKLLIYHSSNLESGVPDRFSGSGSGTDFTLTISSLQAEDVAVYYCLQTIEDSYTFGQGTKLEIK , which is -2.45

Kindly note the recorded log10(koff) for DM18 (antibody, V domains shown, also called wt/mL8) VH: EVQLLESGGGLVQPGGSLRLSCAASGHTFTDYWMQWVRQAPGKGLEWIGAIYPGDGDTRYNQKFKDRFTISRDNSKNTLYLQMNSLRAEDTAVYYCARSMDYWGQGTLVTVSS VL: DIVMTQSPDSLAVSLGERATINCRASKTVDSYGNSFMHWFQQKPGQPPKLLIHHSSNLESGVPDRFSGSGSGTDFTLTISSLQAEDVAVYYCLQTIDEPYTFGQGTKLEIK , which is -2.98

Kindly note the recorded log10(koff) for DM24 (antibody, V domains shown, also called mH3/mL2) VH: EVQLLESGGGLVQPGGSLRLSCAASGFTFSDYWMQWVRQAPGKGLEWIGAIYPGDGDTRYNQKFKDRFTISRDNSKNTLYLQMNSLRAEDTAVYYCARSMDYWGQGTLVTVSS VL: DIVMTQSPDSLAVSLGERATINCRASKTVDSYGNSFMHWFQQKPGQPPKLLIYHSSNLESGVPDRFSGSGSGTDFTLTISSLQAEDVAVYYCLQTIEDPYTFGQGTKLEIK , which is -3.62

Let us examine a further case.
Kindly note the recorded log10(koff) for DM22 (antibody, V domains shown, also called mH2/wt) VH: EVQLLESGGGLVQPGGSLRLSCAASGFTFTDYWMQWVRQAPGKGLEWIGAIYPGDGDTRYNQKFKDRFTISRDNSKNTLYLQMNSLRAEDTAVYYCARSMDYWGQGTLVTVSS VL: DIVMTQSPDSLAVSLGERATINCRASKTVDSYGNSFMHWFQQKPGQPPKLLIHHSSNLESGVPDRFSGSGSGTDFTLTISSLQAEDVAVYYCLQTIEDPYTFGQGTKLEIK , which is -3.82

Cited source for all entries: patent WO2015087187A1
